# TARGET: HDAC1 (Homo sapiens, UniProt Q13547)
# Construct: purchased Biovision Company
# Sequence (Q13547 whole entry): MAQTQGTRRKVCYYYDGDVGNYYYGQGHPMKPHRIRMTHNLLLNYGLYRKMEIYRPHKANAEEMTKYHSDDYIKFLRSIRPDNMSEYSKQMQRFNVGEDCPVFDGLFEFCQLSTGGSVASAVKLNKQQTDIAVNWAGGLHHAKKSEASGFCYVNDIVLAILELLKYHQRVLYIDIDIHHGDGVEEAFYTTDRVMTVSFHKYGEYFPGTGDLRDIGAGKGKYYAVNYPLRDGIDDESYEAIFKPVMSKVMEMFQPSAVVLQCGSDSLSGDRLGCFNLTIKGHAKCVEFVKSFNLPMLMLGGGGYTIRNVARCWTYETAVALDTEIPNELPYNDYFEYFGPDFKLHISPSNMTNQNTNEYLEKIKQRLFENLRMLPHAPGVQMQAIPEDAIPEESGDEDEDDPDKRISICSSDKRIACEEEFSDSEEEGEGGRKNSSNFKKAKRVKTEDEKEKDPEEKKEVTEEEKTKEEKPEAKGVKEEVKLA
# ASSAY_EXPLANATION: HDAC1 inhibitor screening kit (Biovision), in vitro inhibitory activity
# Assay type: biochemical
VALUE_TYPE: IC50 (nM)
Your answer is read as nM, so omit the unit and give the number.

The following compounds have reported results that may help.
O=C(NO)c1ccc(CN2CCCC(O)c3ccccc32)cc1 (stereo not drawn) [Compound T-19]: 442
O=C(NO)c1ccc(CN2CCCCc3cc(F)ccc32)cc1 [Compound T-4]: 414
COc1cccc2c1N(Cc1ccc(C(=O)NO)cc1)CCCC2 [Compound T-8]: 287
O=C(NO)c1ccc(CN2CCCC(=O)c3ccccc32)cc1 [Compound T-18]: 421
COc1cc2c(cc1OC)N(Cc1ccc(C(=O)NO)cc1)CCCC2 [Compound T-9]: 269

# query: IC50 of entry COc1ccc2c(c1)CCCCN2Cc1ccc(C(=O)NO)cc1 [Compound T-5]
257

# query: IC50 of entry COc1ccc(Br)c2c1CCN(Cc1ccc(C(=O)NO)cc1)CC2 [Compound T-27]
431

# query: IC50 of entry COc1ccc2c(c1)N(Cc1ccc(C(=O)NO)cc1)CCCC2 [Compound T-6]
294

# query: IC50 of entry O=C(NO)c1ccc(CN2CCCSc3ccccc32)cc1 [Compound T-16]
254

# query: IC50 of entry O=C(NO)c1ccc(CN2CCCOc3ccccc32)cc1 [Compound T-15]
367

# query: IC50 of entry O=C(NO)c1ccc(CN2CCCCc3ccc(Br)cc32)cc1 [Compound T-3]
400

# query: IC50 of entry COc1cccc2c1CCCCN2Cc1ccc(C(=O)NO)cc1 [Compound T-7]
277

# query: IC50 of entry O=C(NO)c1ccc(CN2CCCCc3ccc(Cl)cc32)cc1 [Compound T-2]
406

###

# TARGET: HDAC6 (Homo sapiens, UniProt Q9UBN7)
# Construct: purchased Biovision Company
# Sequence (Q9UBN7 whole entry): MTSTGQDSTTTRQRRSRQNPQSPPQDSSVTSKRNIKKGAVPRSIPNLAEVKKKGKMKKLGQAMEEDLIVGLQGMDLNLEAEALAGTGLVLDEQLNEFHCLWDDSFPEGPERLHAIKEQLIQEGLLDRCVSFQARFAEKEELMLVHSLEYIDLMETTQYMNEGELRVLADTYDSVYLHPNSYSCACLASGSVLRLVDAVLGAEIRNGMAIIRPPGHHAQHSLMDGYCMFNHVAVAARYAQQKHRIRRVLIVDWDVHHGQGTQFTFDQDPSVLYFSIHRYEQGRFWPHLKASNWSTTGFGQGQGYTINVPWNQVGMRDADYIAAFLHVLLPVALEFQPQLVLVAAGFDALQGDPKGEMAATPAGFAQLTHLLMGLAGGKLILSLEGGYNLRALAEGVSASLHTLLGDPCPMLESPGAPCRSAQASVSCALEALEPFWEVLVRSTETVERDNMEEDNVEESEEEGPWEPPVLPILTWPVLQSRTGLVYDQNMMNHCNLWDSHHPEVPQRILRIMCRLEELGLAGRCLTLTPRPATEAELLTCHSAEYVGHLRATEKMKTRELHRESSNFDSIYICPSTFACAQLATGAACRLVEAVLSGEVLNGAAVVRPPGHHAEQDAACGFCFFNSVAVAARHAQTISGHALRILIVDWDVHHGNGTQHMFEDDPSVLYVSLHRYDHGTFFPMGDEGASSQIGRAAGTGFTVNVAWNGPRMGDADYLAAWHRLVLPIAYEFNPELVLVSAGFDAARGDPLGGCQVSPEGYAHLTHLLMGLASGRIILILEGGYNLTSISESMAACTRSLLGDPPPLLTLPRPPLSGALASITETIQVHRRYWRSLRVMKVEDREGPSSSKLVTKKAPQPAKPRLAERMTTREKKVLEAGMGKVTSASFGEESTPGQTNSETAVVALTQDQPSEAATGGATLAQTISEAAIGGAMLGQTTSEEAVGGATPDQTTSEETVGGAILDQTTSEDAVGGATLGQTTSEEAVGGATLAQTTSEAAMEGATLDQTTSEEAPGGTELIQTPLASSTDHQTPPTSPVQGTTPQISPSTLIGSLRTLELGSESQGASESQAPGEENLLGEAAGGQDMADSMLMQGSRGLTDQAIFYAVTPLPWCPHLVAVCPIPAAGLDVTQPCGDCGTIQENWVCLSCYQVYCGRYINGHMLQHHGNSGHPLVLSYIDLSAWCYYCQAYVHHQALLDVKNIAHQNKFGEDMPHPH
# ASSAY_EXPLANATION: HDAC6 inhibitor screening kit (Biovision), in vitro inhibitory activity
# Assay type: biochemical
VALUE_TYPE: log10 IC50 (log10 of the value in nM)
All values: log10 IC50 [nM].

O=C(NO)c1ccc(CN2CCCSc3ccccc32)cc1 [Compound T-16]: 0.08
COc1ccc2c(c1)CCN(Cc1ccc(C(=O)NO)cc1)CC2 [Compound T-25]: 1.23
O=C(NO)c1ccc(CN2CCCCc3ccc(C4CC4)cc32)cc1 [Compound T-12]: 1.65
CN(C)c1ccc2c(c1)N(Cc1ccc(C(=O)NO)cc1)CCCC2 [Compound T-13]: 1.93
COc1ccc(C2CC2)c2c1CCN(Cc1ccc(C(=O)NO)cc1)CC2 [Compound T-28]: 1.34
O=C(NO)c1ccc(CN2CCCCc3ccccc32)cc1F [Compound T-24]: 1.08
O=C(NO)c1ccc(CN2CCCOc3ccccc32)cc1 [Compound T-15]: 0.79
O=C(NO)c1ccc(CN2CCCC(O)c3ccccc32)cc1 (stereo not drawn) [Compound T-19]: 0.81

Then there is this molecule:
Please tell me: log10 IC50 of O=C(NO)c1ccc(CN2CCCCc3ccc(-c4ccncc4)cc32)cc1 [Compound T-11] , system HDAC6 (Homo sapiens, UniProt Q9UBN7)?
1.16

###

# TARGET: HDAC6 (Homo sapiens)
# Construct: purchased Biovision Company
# ASSAY_EXPLANATION: HDAC6 inhibitor screening kit (Biovision), in vitro inhibitory activity
# Assay type: biochemical
For each record, check the reported IC50: if it is below 9 nM write true, else write false.

O=C(NO)c1ccc(CN2CCCCc3ccc(Br)cc32)cc1: false

Turning now to a further molecule:
Is IC50 strictly under 9 nM for the entry COc1ccc2c(c1)N(Cc1ccc(C(=O)NO)cc1)CCCC2 ?
true

###

Listed compounds paired with reported log10 of IC50
# TARGET: HDAC6 (Homo sapiens)
# Construct: purchased Biovision Company
# ASSAY_EXPLANATION: HDAC6 inhibitor screening kit (Biovision), in vitro inhibitory activity
# Assay type: biochemical
All values: log10 IC50 [nM].

# query: log10 of IC50 of entry COc1cccc2c1CCN(Cc1ccc(C(=O)NO)cc1)CC2 [Compound T-26]
1.99

# query: log10 of IC50 of entry O=C(NO)c1ccc(CN2CCCCc3cc(F)ccc32)cc1 [Compound T-4]
0.91

###

Listed molecules paired with reported IC50
# TARGET: HDAC6 (Homo sapiens, UniProt Q9UBN7)
# Construct: purchased Biovision Company
# ASSAY_EXPLANATION: HDAC6 inhibitor screening kit (Biovision), in vitro inhibitory activity
# Format: biochemical
Your answer is read as nM, so omit the unit and give the number.

# query: IC50 of entry O=C(NO)c1ccc(CN2CCCCc3ccc(Cl)cc32)cc1 [Compound T-1]
37

# query: IC50 of entry COc1cccc2c1N(Cc1ccc(C(=O)NO)cc1)CCCC2
9.2

# query: IC50 of entry CN1CCCN(Cc2ccc(C(=O)NO)cc2)c2ccccc21
7.4

# query: IC50 of entry O=C(NO)c1ccc(CN2CCCCc3ccc(-c4ccccc4)cc32)cc1
129

# query: IC50 of entry COc1ccc2c(c1)CCCCN2Cc1ccc(C(=O)NO)cc1
5.6
